Sourced from ChEMBL document CHEMBL4406900

target: 5-hydroxytryptamine receptor 1A (Homo sapiens) (UniProt P08908); assay: Displacement of [3H]-8-OH-DPAT from 5HT1A receptor (unknown origin) expressed in HEK293 cells membranes at 1 uM incubated for 60 mins by scintillation counting method relative to control; assay type: cell membranes
Sequence (P08908 whole entry): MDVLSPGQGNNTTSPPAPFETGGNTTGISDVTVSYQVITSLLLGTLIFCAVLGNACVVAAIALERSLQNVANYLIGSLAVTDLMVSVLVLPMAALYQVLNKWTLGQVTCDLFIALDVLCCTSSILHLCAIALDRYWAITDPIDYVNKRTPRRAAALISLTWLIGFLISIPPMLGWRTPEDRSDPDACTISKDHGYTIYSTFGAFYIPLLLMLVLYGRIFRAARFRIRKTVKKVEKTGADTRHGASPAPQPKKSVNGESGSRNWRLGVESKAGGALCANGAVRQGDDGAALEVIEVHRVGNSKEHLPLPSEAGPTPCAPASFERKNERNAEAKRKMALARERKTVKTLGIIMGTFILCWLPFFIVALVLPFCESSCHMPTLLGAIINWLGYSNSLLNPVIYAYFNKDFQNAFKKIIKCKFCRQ
QUANTITY_MEASURED: inhibition (%)
Answers are plain numbers, in %.

*Q* Quick one: inhibition of `Fc1ccc(OCCCN2CCC(c3c[nH]c4ccc(F)cc34)CC2)c(-c2ccccc2)c1` ?
*A* 97.7

*Q* Quick one: inhibition of `Fc1ccc(OCCN2CCC(c3c[nH]c4ccc(F)cc34)CC2)c(-c2ccccc2F)c1` ?
*A* 97.8

*Q* Quick one: inhibition of `Fc1ccc(OCCN2CCC(c3c[nH]c4ccc(F)cc34)CC2)c(-c2ccccc2)c1` ?
*A* 94.2

From here, focus on the item given below.
*Q* Quick one: inhibition of `Fc1ccc(OCCN2CCC(Cc3c[nH]c4ccc(F)cc34)CC2)c(-c2ccccc2)c1` ?
*A* 72.3
